# protocol-summary: Lipophilicity, log D of the compound
# Assay type: physicochemical
# assay-setup: octanol/water
Rule for this label: label 1 means logD is less than 3; label 0 means logD is at least 3.

| structure-smiles | assigned-category |
| --- | --- |
| COc1cc(/C=C/C(=O)NCCCCNc2c3c(nc4ccccc24)CCCC3)ccc1O | label 0 |
| CCNS(=O)(=O)c1ccc(NC(=O)c2ccc(Cn3nc(C)cc3C)o2)cc1 | label 1 |
| C=CCn1c(SCCCC(=O)Nc2ccc(S(N)(=O)=O)cc2)nc2sc3c(c2c1=O)CCCC3 | label 0 |
| CCOc1cc(/C=N/NC(=O)c2cc(-c3cccc(OC)c3)n[nH]2)ccc1O | label 0 |
| COc1cc(/C=N/NC(=O)CSc2nnc(-c3ccc(OC)c(OC)c3)n2-c2ccccc2)ccc1O | label 0 |
| C=CCn1c2ccccc2c2nnc(SCC(=O)Nc3ccc(S(N)(=O)=O)cc3)nc21 | label 1 |
| COc1cc(/C=N/NC(=O)c2ccc(COc3cccc(Cl)c3)o2)cc(Br)c1O | label 0 |
| COc1cc(/C=C/C(=O)NCCCCCNc2c3c(nc4ccccc24)CCCC3)ccc1O | label 0 |
| O=C1Nc2cc(S(=O)(=O)Nc3ccc(Oc4ccccc4)cc3)cc3cccc1c23 | label 0 |
